Readout name: melting point

Molecule	melting point
CCN(Cc1ccccn1)C(=O)Cc1c(-c2ccc(C)cc2)nc2cc(C)ccn12.Cl [Compound 14]	218 to 220 °C
CCN(Cc1cccnc1)C(=O)Cc1c(-c2ccc(Cl)cc2)nc2cc(C)ccn12.Cl [Compound 3]	236 to 238 °C
COCCN(CCN1CCOCC1)C(=O)Cc1c(-c2ccc(C)cc2)nc2cc(C)ccn12.Cl [Compound 25]	165 to 167 °C
CCN(Cc1cccnc1)C(=O)Cc1c(-c2ccc(OC)cc2)nc2cc(C)ccn12.Cl [Compound 21]	230 to 232 °C

// input: 2 molecules below; output: melting point for each
1. CCN(Cc1ccccn1)C(=O)Cc1c(-c2ccc(OC)cc2)nc2cc(C)ccn12.Cl [Compound 20]
2. COCCN(Cc1cccnc1)C(=O)Cc1c(-c2ccc(Cl)cc2)nc2cc(C)ccn12.Cl [Compound 6]

Reply text:
["228 to 230 °C", "234 to 235 °C"]

====

Target: TSPO protein separated and purified from rat heart (Rattus norvegicus (Rat), UniProt P16257)
Readout name: Ki (nM)
Answers are plain numbers, in nM.

Study these solved cases before continuing.
Molecular string	Ki, nM
CCN(Cc1ccccc1)C(=O)Cc1c(-c2ccc(C)cc2)nc2cc(C)ccn12	2.97
CCN(Cc1ccccn1)C(=O)Cc1c(-c2ccc(C)cc2)nc2cc(C)ccn12.Cl	38.7

Briefly, Ki measured for CCN(Cc1ccccc1)C(=O)Cc1c(-c2ccc(Cl)c(Cl)c2)nc2cc(C)ccn12 : 49.2

====

Readout name: melting point

Compound	melting point
CCN(Cc1ccccc1)C(=O)Cc1c(-c2ccc(C)cc2)nc2cc(C)ccn12 [Compound 13]	220 to 222 °C
CCN(Cc1ccccn1)C(=O)Cc1c(-c2ccc(Cl)cc2)nc2cc(C)ccn12.Cl [Compound 2]	178 to 180 °C
CCN(Cc1ccncc1)C(=O)Cc1c(-c2ccc(Cl)cc2)nc2cc(C)ccn12.Cl [Compound 4]	245 to 247 °C

The compound listed as CCN(Cc1ccncc1)C(=O)Cc1c(-c2ccc(C)cc2)nc2ccc(C)cn12.Cl [Compound 27] has a reported melting point of 222 to 224 °C

====

Biological target: TSPO protein separated and purified from rat heart (Rattus norvegicus (Rat))
Assay: TSPO and radioligand (3H-PK11195) competitive binding test
Details: 1 × 10^−7M; n = 6 times
Classification field: t = Inhibition rate (%) at or over 70%; f = Inhibition rate (%) under 70%.

Recorded results for 4 compounds are shown here.
Compound	System	Class
CCN(Cc1ccccn1)C(=O)Cc1c(-c2ccc(Cl)c(Cl)c2)nc2cc(C)ccn12.Cl [Compound 8]	TSPO protein separated and purified from rat heart (Rattus norvegicus (Rat))	t
CN1C(=O)CN=C(c2ccc(Cl)cc2)c2cc(Cl)ccc21 [Compound R05-4864, 4′-chlorodiazepam, reference compound]	TSPO protein separated and purified from rat heart (Rattus norvegicus (Rat))	t
CCN(Cc1ccccc1)C(=O)Cc1c(-c2ccc(Cl)cc2)nc2cc(C)ccn12 [Compound 1]	TSPO protein separated and purified from rat heart (Rattus norvegicus (Rat))	t
COCCN(Cc1ccccn1)C(=O)Cc1c(-c2ccc(OC)cc2)nc2cc(C)ccn12.Cl [Compound 23]	TSPO protein separated and purified from rat heart (Rattus norvegicus (Rat))	f

Inquiry: Would you say CCN(Cc1ccccc1)C(=O)Cc1c(-c2ccc(C)cc2)nc2cc(C)ccn12 [Compound 13] shows Inhibition rate (%) at minimum 70%?
Reply text: t

Inquiry: Is it the case that CCN(Cc1ccncc1)C(=O)Cc1c(-c2ccc(OC)cc2)nc2cc(C)ccn12.Cl [Compound 22] has Inhibition rate (%) reaching or exceeding 70%?
Reply text: f

Inquiry: Would you say CCN(Cc1cccnc1)C(=O)Cc1c(-c2ccc(OC)cc2)nc2cc(C)ccn12.Cl [Compound 21] shows Inhibition rate (%) at minimum 70%?
Reply text: f

====

Biological target: UniProt P16257
Test: TSPO and radioligand (3H-PK11195) competitive binding test
Conditions: 1 × 10^−5M; n = 6 times
Readout name: Inhibition rate (%)
Answers are plain numbers, in %.

Consider the worked cases shown below.
Molecule	Inhibition rate (%)
CCN(Cc1ccccc1)C(=O)Cc1c(-c2ccc(OC)cc2)nc2cc(C)ccn12 [Compound 19]	94
COCCN(CCN1CCOCC1)C(=O)Cc1c(-c2ccc(C)cc2)nc2ccc(C)cn12.Cl [Compound 26]	48
CCN(Cc1ccncc1)C(=O)Cc1c(-c2ccc(C)cc2)nc2ccc(C)cn12.Cl [Compound 27]	91
COCCN(Cc1ccccn1)C(=O)Cc1c(-c2ccc(C)cc2)nc2cc(C)ccn12.Cl [Compound 17]	83
CCN(Cc1cccnc1)C(=O)Cc1c(-c2ccc(C)cc2)nc2cc(C)ccn12.Cl [Compound 15]	90
CCN(Cc1ccccn1)C(=O)Cc1c(-c2ccc(Cl)cc2)nc2cc(C)ccn12.Cl [Compound 2]	100
COCCN(Cc1ccccn1)C(=O)Cc1c(-c2ccc(OC)cc2)nc2cc(C)ccn12.Cl [Compound 23]	85
CCN(Cc1ccncc1)C(=O)Cc1c(-c2ccc(Cl)c(Cl)c2)nc2cc(C)ccn12.Cl [Compound 10]	100

// for each molecule in input: emit Inhibition rate (%)
1. CCN(Cc1ccccc1)C(=O)Cc1c(-c2ccc(C)cc2)nc2cc(C)ccn12 [Compound 13]
2. CCN(Cc1cccnc1)C(=O)Cc1c(-c2ccc(OC)cc2)nc2cc(C)ccn12.Cl [Compound 21]
3. COCCN(CCN1CCOCC1)C(=O)Cc1c(-c2ccc(C)cc2)nc2cc(C)ccn12.Cl [Compound 25]
4. COCCN(Cc1ccccn1)C(=O)Cc1c(-c2ccc(Cl)c(Cl)c2)nc2cc(C)ccn12.Cl [Compound 11]
5. COCCN(Cc1cccnc1)C(=O)Cc1c(-c2ccc(Cl)cc2)nc2cc(C)ccn12.Cl [Compound 6]

Reply text:
1. 97
2. 43
3. 31
4. 100
5. 70

====

Please respond with reported Inhibition rate (%) for every item in the list.
Molecular target: TSPO protein separated and purified from rat heart (Rattus norvegicus (Rat))
Test: TSPO and radioligand (3H-PK11195) competitive binding test
Settings: 1 × 10^−7M; n = 6 times
From the text: In the present test, TSPO protein separated and purified from rat heart was used as screening target, via competitive binding test with radioligand (^3H-PK11195), to screen TSPO ligand compounds. […]
Give bare numbers, in %.

Below: 4 compounds and their reported Inhibition rate (%).
Molecular string	Assay value
CCN(Cc1cccnc1)C(=O)Cc1c(-c2ccc(Cl)c(Cl)c2)nc2cc(C)ccn12.Cl	8
COCCN(Cc1cccnc1)C(=O)Cc1c(-c2ccc(Cl)cc2)nc2cc(C)ccn12.Cl	0
COCCN(Cc1ccccn1)C(=O)Cc1c(-c2ccc(Cl)cc2)nc2cc(C)ccn12.Cl	43
COCCN(CCN1CCOCC1)C(=O)Cc1c(-c2ccc(C)cc2)nc2ccc(C)cn12.Cl	1

Continue with the next compound.
Reported Inhibition rate (%) of CCN(Cc1ccccn1)C(=O)Cc1c(-c2ccc(OC)cc2)nc2cc(C)ccn12.Cl : 63

====

Please provide measured melting point for the entries that follow.

Past entries and their recorded results:
Molecular string	melting point
CCN(Cc1ccccn1)C(=O)Cc1c(-c2ccc(Cl)c(Cl)c2)nc2cc(C)ccn12.Cl	217 to 220 °C
CCN(Cc1ccncc1)C(=O)Cc1c(-c2ccc(Cl)cc2)nc2ccc(C)cn12.Cl	229 to 231 °C
COCCN(Cc1ccccn1)C(=O)Cc1c(-c2ccc(OC)cc2)nc2cc(C)ccn12.Cl	214 to 216 °C (dec.)

Would you kindly look at the next entry?
Record COCCN(Cc1ccccn1)C(=O)Cc1c(-c2ccc(Cl)cc2)nc2cc(C)ccn12.Cl , field melting point: 238 to 239 °C

====

Readout name: melting point

For every listed record, write down its melting point.
1. COCCN(CCN1CCOCC1)C(=O)Cc1c(-c2ccc(C)cc2)nc2ccc(C)cn12.Cl [Compound 26]
2. CCN(Cc1ccncc1)C(=O)Cc1c(-c2ccc(C)cc2)nc2cc(C)ccn12.Cl [Compound 16]
3. COCCN(Cc1ccccn1)C(=O)Cc1c(-c2ccc(Cl)c(Cl)c2)nc2cc(C)ccn12.Cl [Compound 11]

Reply text:
245 to 247 °C
253 to 255 °C
236 to 238 °C

====

Target: TSPO protein separated and purified from rat heart (Rattus norvegicus (Rat), UniProt P16257)
Test: TSPO and radioligand (3H-PK11195) competitive binding test
Settings: 1 × 10^−9M; n = 6 times
Please go through the items and note down their Inhibition rate (%).
One number for each entry, in %.

Molecular string	Inhibition rate (%)
COCCN(Cc1ccccn1)C(=O)Cc1c(-c2ccc(OC)cc2)nc2cc(C)ccn12.Cl	3
CCN(Cc1ccccc1)C(=O)Cc1c(-c2ccc(Cl)c(Cl)c2)nc2cc(C)ccn12	10
COCCN(Cc1cccnc1)C(=O)Cc1c(-c2ccc(OC)cc2)nc2cc(C)ccn12.Cl	0
COCCN(Cc1ccccn1)C(=O)Cc1c(-c2ccc(C)cc2)nc2cc(C)ccn12.Cl	0
CCN(Cc1ccncc1)C(=O)Cc1c(-c2ccc(Cl)cc2)nc2ccc(C)cn12.Cl	0

Hello, I would appreciate it if you could give Inhibition rate (%) for each entry below.
1. CCN(Cc1ccncc1)C(=O)Cc1c(-c2ccc(Cl)c(Cl)c2)nc2cc(C)ccn12.Cl
2. CCN(Cc1ccccc1)C(=O)Cc1c(-c2ccc(OC)cc2)nc2cc(C)ccn12
3. CCN(Cc1ccncc1)C(=O)Cc1c(-c2ccc(C)cc2)nc2ccc(C)cn12.Cl
4. COCCN(CCN1CCOCC1)C(=O)Cc1c(-c2ccc(C)cc2)nc2ccc(C)cn12.Cl

Reply text:
1: 23; 2: 0; 3: 0; 4: 0

Entry source: patent US8980887B2
